- System: H2228 (EML4-ALK)
- experimentalDetails: IC50 of sanguinarine against NSCLC cell line H2228
- Type: cell-based
- experimentalParameters: Homo sapiens, NCI-H2228; H2228, 24 hrs; read-out: IC50 value Treatment (24 hrs)
reportedMetric: IC50 (µM)
Write down the numeric answer in µM and omit the unit.

[ask] Can you share its IC50? I mean this compound: "C[n+]1cc2c3c(ccc2c2ccc4cc5c(cc4c21)OCO5)OCO3"
[reply] 3.73

* * *

- System: A549 (EGFR^wild-type)
- experimentalDetails: IC50 of sanguinarine against NSCLC cell line A549
- Assay type: cell-based
- experimentalParameters: Homo sapiens; A549, 48 hrs; read-out: IC50 value Treatment (48 hrs)
reportedMetric: pIC50
Note: pIC50 values are expressed as the negative base-10 logarithm of concentration in M.

[ask] Can you share its pIC50? I mean this compound: C[n+]1cc2c3c(ccc2c2ccc4cc5c(cc4c21)OCO5)OCO3 [sanguinarine]
[reply] 5.42
